assay: Rat PK Study 1: intraduodenal/intracolonic dosing with absorption enhancers; type: in vivo, Sprague Dawley rats; conditions: male, Sprague Dawley, plasma, other: intraduodenal, 10 mg/kg, ID dose 10 mg/kg, no absorption enhancer
Quantity: Cmax (ng/mL)
Express the result in ng/mL but write the number alone.

## Input Would you kindly share the measured Cmax for CC(=O)NCCCC[C@@H]1NC(=O)[C@H](Cc2c[nH]c3c(C)cccc23)NC(=O)[C@H]([C@@H](C)O)NC(=O)[C@H](CC(N)=O)NC(=O)[C@@H](NC(C)=O)C(C)(C)SSC(C)(C)[C@@H](C(=O)N[C@@H](Cc2ccc(OCCN)cc2)C(=O)N[C@@H](Cc2ccc3ccccc3c2)C(=O)NC2(C(=O)N[C@@H](CCC(=O)O)C(=O)N[C@@H](CC(N)=O)C(=O)N[C@@H](Cc3cccnc3)C(=O)N(C)CC(N)=O)CCOCC2)NC1=O ?
## Output 23.1

---

assay: Rat PK Study 1: intraduodenal/intracolonic dosing with absorption enhancers; assay type: in vivo, Sprague Dawley rats; details: male, Sprague Dawley, plasma, other: intraduodenal, 10 mg/kg, ID dose 10 mg/kg, SNAC 100 mg/kg
Quantity: AUC(0-inf) (ng·h/mL)
Express the result in ng·h/mL but write the number alone.

## Input Would you kindly share the measured AUC(0-inf) for CC(=O)NCCCC[C@@H]1NC(=O)[C@H](Cc2c[nH]c3c(C)cccc23)NC(=O)[C@H]([C@@H](C)O)NC(=O)[C@H](CC(N)=O)NC(=O)[C@@H](NC(C)=O)C(C)(C)SSC(C)(C)[C@@H](C(=O)N[C@@H](Cc2ccc(OCCN)cc2)C(=O)N[C@@H](Cc2ccc3ccccc3c2)C(=O)NC2(C(=O)N[C@@H](CCC(=O)O)C(=O)N[C@@H](CC(N)=O)C(=O)N[C@@H](Cc3cccnc3)C(=O)N(C)CC(N)=O)CCOCC2)NC1=O [SEQ ID NO: 1] ?
## Output 215

---

assay: Rat PK Study 1: intraduodenal/intracolonic dosing with absorption enhancers; assay type: in vivo, Sprague Dawley rats; conditions: male, Sprague Dawley, plasma, other: intracolonic, 10 mg/kg, IC dose 10 mg/kg, Sucrose laurate 100 mg/kg
Quantity: AUC(0-t)
The answer consists of two parts: a number and, after it, its unit.

## Input Would you kindly share the measured AUC(0-t) for CC(=O)NCCCC[C@@H]1NC(=O)[C@H](Cc2c[nH]c3c(C)cccc23)NC(=O)[C@H]([C@@H](C)O)NC(=O)[C@H](CC(N)=O)NC(=O)[C@@H](NC(C)=O)C(C)(C)SSC(C)(C)[C@@H](C(=O)N[C@@H](Cc2ccc(OCCN)cc2)C(=O)N[C@@H](Cc2ccc3ccccc3c2)C(=O)NC2(C(=O)N[C@@H](CCC(=O)O)C(=O)N[C@@H](CC(N)=O)C(=O)N[C@@H](Cc3cccnc3)C(=O)N(C)CC(N)=O)CCOCC2)NC1=O ?
## Output 176 ng·h/mL

---

experiment: Colon and colonic content concentrations in rat TNBS colitis model (LC-MS/MS); type: in vivo, Sprague Dawley rats; details: Sprague Dawley, colon content, po, 1 mg/kg, Study 2, 1 mg/kg QD oral, total daily dose 1 mg/kg, read-out: Mean concentration in Colon content
Quantity: tissue level at time at 168 h
The answer consists of two parts: a number and, after it, its unit.

## Input Would you kindly share the measured tissue level at time at 168 h for CC(=O)NCCCC[C@@H]1NC(=O)[C@H](Cc2c[nH]c3c(C)cccc23)NC(=O)[C@H]([C@@H](C)O)NC(=O)[C@H](CC(N)=O)NC(=O)[C@@H](NC(C)=O)C(C)(C)SSC(C)(C)[C@@H](C(=O)N[C@@H](Cc2ccc(OCCN)cc2)C(=O)N[C@@H](Cc2ccc3ccccc3c2)C(=O)NC2(C(=O)N[C@@H](CCC(=O)O)C(=O)N[C@@H](CC(N)=O)C(=O)N[C@@H](Cc3cccnc3)C(=O)N(C)CC(N)=O)CCOCC2)NC1=O [SEQ ID NO: 1] ?
## Output 11700 ng/g

---

assay: Rat PK Study 1: intraduodenal/intracolonic dosing with absorption enhancers; type: in vivo, Sprague Dawley rats; details: male, Sprague Dawley, plasma, other: intraduodenal, 10 mg/kg, ID dose 10 mg/kg, SNAC 100 mg/kg
Quantity: Tmax (min)
Express the result in min but write the number alone.

## Input Would you kindly share the measured Tmax for CC(=O)NCCCC[C@@H]1NC(=O)[C@H](Cc2c[nH]c3c(C)cccc23)NC(=O)[C@H]([C@@H](C)O)NC(=O)[C@H](CC(N)=O)NC(=O)[C@@H](NC(C)=O)C(C)(C)SSC(C)(C)[C@@H](C(=O)N[C@@H](Cc2ccc(OCCN)cc2)C(=O)N[C@@H](Cc2ccc3ccccc3c2)C(=O)NC2(C(=O)N[C@@H](CCC(=O)O)C(=O)N[C@@H](CC(N)=O)C(=O)N[C@@H](Cc3cccnc3)C(=O)N(C)CC(N)=O)CCOCC2)NC1=O [SEQ ID NO: 1] ?
## Output 15

---

assay: Colon and colonic content concentrations in rat TNBS colitis model (LC-MS/MS); assay type: in vivo, Sprague Dawley rats; conditions: Sprague Dawley, colon content, po, 1 mg/kg, Study 3, 1 mg/kg TID oral, total daily dose 3 mg/kg, read-out: Mean concentration in Colon content
Quantity: tissue level at time at 168 h (ng/g)
Express the result in ng/g but write the number alone.

## Input Would you kindly share the measured tissue level at time at 168 h for CC(=O)NCCCC[C@@H]1NC(=O)[C@H](Cc2c[nH]c3c(C)cccc23)NC(=O)[C@H]([C@@H](C)O)NC(=O)[C@H](CC(N)=O)NC(=O)[C@@H](NC(C)=O)C(C)(C)SSC(C)(C)[C@@H](C(=O)N[C@@H](Cc2ccc(OCCN)cc2)C(=O)N[C@@H](Cc2ccc3ccccc3c2)C(=O)NC2(C(=O)N[C@@H](CCC(=O)O)C(=O)N[C@@H](CC(N)=O)C(=O)N[C@@H](Cc3cccnc3)C(=O)N(C)CC(N)=O)CCOCC2)NC1=O ?
## Output 20800

---

test: Rat PK Study 1: intraduodenal/intracolonic dosing with absorption enhancers; type: in vivo, Sprague Dawley rats; conditions: male, Sprague Dawley, plasma, other: intraduodenal, 10 mg/kg, ID dose 10 mg/kg, Enteris A 60 mg/kg
Quantity: Tmax (min)
Express the result in min but write the number alone.

## Input Would you kindly share the measured Tmax for CC(=O)NCCCC[C@@H]1NC(=O)[C@H](Cc2c[nH]c3c(C)cccc23)NC(=O)[C@H]([C@@H](C)O)NC(=O)[C@H](CC(N)=O)NC(=O)[C@@H](NC(C)=O)C(C)(C)SSC(C)(C)[C@@H](C(=O)N[C@@H](Cc2ccc(OCCN)cc2)C(=O)N[C@@H](Cc2ccc3ccccc3c2)C(=O)NC2(C(=O)N[C@@H](CCC(=O)O)C(=O)N[C@@H](CC(N)=O)C(=O)N[C@@H](Cc3cccnc3)C(=O)N(C)CC(N)=O)CCOCC2)NC1=O [SEQ ID NO: 1] ?
## Output 15

---

assay: Rat PK Study 1: intraduodenal/intracolonic dosing with absorption enhancers; type: in vivo, Sprague Dawley rats; settings: male, Sprague Dawley, plasma, other: intracolonic, 10 mg/kg, IC dose 10 mg/kg, NaC10 100 mg/kg
Quantity: Cmax
The answer consists of two parts: a number and, after it, its unit.

## Input Would you kindly share the measured Cmax for CC(=O)NCCCC[C@@H]1NC(=O)[C@H](Cc2c[nH]c3c(C)cccc23)NC(=O)[C@H]([C@@H](C)O)NC(=O)[C@H](CC(N)=O)NC(=O)[C@@H](NC(C)=O)C(C)(C)SSC(C)(C)[C@@H](C(=O)N[C@@H](Cc2ccc(OCCN)cc2)C(=O)N[C@@H](Cc2ccc3ccccc3c2)C(=O)NC2(C(=O)N[C@@H](CCC(=O)O)C(=O)N[C@@H](CC(N)=O)C(=O)N[C@@H](Cc3cccnc3)C(=O)N(C)CC(N)=O)CCOCC2)NC1=O ?
## Output 1.03 µg/mL

---

assay: Colon and colonic content concentrations in rat TNBS colitis model (LC-MS/MS); assay type: in vivo, Sprague Dawley rats; settings: Sprague Dawley, colon content, po, 0.5 mg/kg, Study 2, 0.5 mg/kg BID oral, total daily dose 1 mg/kg, read-out: Mean concentration in Colon content
Quantity: tissue level at time at 168 h (ng/g)
Express the result in ng/g but write the number alone.

## Input Would you kindly share the measured tissue level at time at 168 h for CC(=O)NCCCC[C@@H]1NC(=O)[C@H](Cc2c[nH]c3c(C)cccc23)NC(=O)[C@H]([C@@H](C)O)NC(=O)[C@H](CC(N)=O)NC(=O)[C@@H](NC(C)=O)C(C)(C)SSC(C)(C)[C@@H](C(=O)N[C@@H](Cc2ccc(OCCN)cc2)C(=O)N[C@@H](Cc2ccc3ccccc3c2)C(=O)NC2(C(=O)N[C@@H](CCC(=O)O)C(=O)N[C@@H](CC(N)=O)C(=O)N[C@@H](Cc3cccnc3)C(=O)N(C)CC(N)=O)CCOCC2)NC1=O ?
## Output 11200
